# credit: PubChem BioAssay (NCATS)

test system: Hek293T; assay: Primary qHTS to identify gynecologic anti-cancer compounds using libraries of approved drugs and bioactive compounds (AID 1345084); settings: Gynecologic cancer cell panel viability, ATPlite luminescence, 48 h, control line for the selectivity index; series mostly up to 57.5 µM; also: nearly all actives have a fitted effect of over 55% in size; also: potency is read from the fitted curve at half-maximal effect
Inconclusive results are not listed. Active and inactive are the calls of the source. Calls follow the shape of the dose curve; as a rule, active = well fitted cell-killing curve with a large enough effect; inconclusive = small, poorly fitted or top-dose-only effect, or effect the other way; inactive = flat fitted curve, though single readings scatter. *1 amine or outer side, *2 acyl side, *3 side chain or, on linkers, in order; H or OH if unused. Where a SMILES comes first, the peptide text is derived from it. [ ]: non-standard residue; d: D form. X5 = CC(CC(O[*:1])C(=O)[*:2])C(=O)O; NMeV = CN[CH](C(=O)O)C(C)C; NMeA = CN[CH](C)C(=O)O; βAla = NCCC(=O)O
Measured Endpoint: Potency

Solved entries (count: 5):
{"columns": ["Compound", "Measured Endpoint", "Assay Value"],
 "data": [
  ["c1cncc(OC[C@@H]2CCN2)c1", "Potency", "inactive"],
  ["CC(=O)O[C@H]1C(=O)[C@]2(C)C(O)C[C@H]3OC[C@@]3(OC(C)=O)[C@H]2[C@H](OC(=O)c2ccccc2)[C@]2(O)C[C@H](O)C(C)=C1C2(C)C (some centres undefined)", "Potency", "inactive"],
  ["c1ccc(C2(c3ccccc3)OC[C@@H]([C@H]3CCCCN3)O2)cc1", "Potency", "inactive"],
  ["C=C[C@H]1CN2CCC1C[C@H]2[C@H](O)c1ccnc2ccccc12 (some centres undefined)", "Potency", "inactive"],
  ["CC(=O)OC[C@]12C[C@H](OC(C)=O)C(C)=C[C@H]1O[C@@H]1[C@H](O)[C@@H](O)[C@@]2(C)[C@]12CO2", "Potency", "398 nM (active)"]
]}

For every item in the list below, what is its measured Potency?
1. CC/C=C/C=C/C1(C)OC(OC)=C(C(=O)C2C(C)C(=O)c3cc(OC)c(O)c(O)c3C2(C)O)C1=O (centres undefined)
2. CC(=O)NCCCOc1ccc(C(=O)N2CCC(N3C(=O)CCc4ccccc43)CC2)cc1
3. CN1CN(c2ccccc2)C2(CCN(CCCC(=O)c3ccc(F)cc3)CC2)C1=O
4. CC(=O)O[C@@H]1[C@H]2CC[C@H]3[C@@](C)(O)[C@@H]4C[C@H](O)C(C)(C)[C@@]4(O)[C@H](O)C[C@@]13C[C@@]2(C)O

1. inactive
2. inactive
3. inactive
4. inactive

For every item in the list below, what is its measured Potency?
1. CCCCCn1cc(C(=O)Oc2cccc3cccnc23)c2ccccc21
2. C[C@H](CCC(=O)O)C[C@H](C)C[C@H](C)C(=O)/C=C(\O)[C@H](C)C[C@H](C)C/C=C/[C@@H](C)[C@@H](O)[C@@H](C)[C@@H](O)C[C@@H]1CC[C@@](C)([C@H]2CC[C@@](C)([C@@H](C)O)O2)O1

1. inactive
2. inactive

For every item in the list below, what is its measured Potency?
1. CCC(C)C1NC(=O)C2CCCN2C(=O)C(CC(C)C(=O)O)OC(=O)CCNC(=O)C(C)N(C)C(=O)C(C(C)C)N(C)C1=O (centres undefined) (cyclo([X5]PI[NMeV][NMeA][βAla]); configuration not given here)
2. C/C=C(\C)C(=O)O[C@@H]1[C@@H](C)[C@]2(O)C3C=C(C)C(=O)[C@@]3(O)CC(CO)=C[C@H]2C2C(C)(C)[C@@]21OC(=O)C(C)CC (some centres undefined)
3. CC1=CC2/C=C(\C)CCC(O)C(O)/C=C/C(=O)OC23C(=O)NC(CC(C)C)C3C1C (centres undefined)
4. CC(=O)O[C@H]1C[C@]2(O)[C@@H]3CC[C@@H]4C[C@@H](O)CC[C@]4(C)[C@H]3CC[C@]2(C)[C@H]1c1ccc(=O)oc1

["inactive", "inactive", "inactive", "89.1 nM (active)"]

For every item in the list below, what is its measured Potency?
1. CC12Cc3cn[nH]c3C=C1CCC1C2CCC2(C)C1CCC2(C)O (centres undefined)
2. O=S(=O)(c1ccccc1F)N1CCOc2c(N3CCNCC3)cccc21
3. COC(=O)C12C(=O)C(C)(O)C(=O)C1(C)C(C)=CC1C3(C=O)CCC(OC(C)=O)C(C)(C)C3CCC12C (centres undefined)
4. COC1CC(O[C@H]2CC[C@]3(C)C4CC[C@]5(C)[C@@H](C6=CC(=O)OC6)[C@@H](OC(C)=O)C[C@]5(O)C4CC[C@@H]3C2)OC(C)C1O[C@@H]1O[C@H](CO)[C@@H](O)[C@H](O)[C@H]1O (some centres undefined)

1: inactive; 2: inactive; 3: inactive; 4: 1410 nM (active)

For every item in the list below, what is its measured Potency?
1. CC(=O)N1N=C(c2ccc(N)cc2)c2cc3c(cc2C[C@H]1C)OCO3
2. Cc1sc2c(c1C)C(c1ccc(Cl)cc1)=NC(CC(=O)OC(C)(C)C)c1nnc(C)n1-2 (centres undefined)
3. Oc1ccc2c3c1O[C@H]1c4[nH]c5c(N=C=S)cccc5c4C[C@@]4(O)[C@@H](C2)N(CC2CC2)CC[C@]314

["inactive", "inactive", "inactive"]

For every item in the list below, what is its measured Potency?
1. C[C@H]1O[C@@H](O[C@H]2CC[C@]3(CO)C4CC[C@]5(C)[C@@H](C6=CC(=O)OC6)CC[C@]5(O)[C@@H]4CC[C@H]3C2)[C@H](O)[C@H](O)[C@@H]1O[C@@H]1O[C@H](CO)[C@@H](O)[C@H](O)[C@H]1O (some centres undefined)
2. COc1ccsc1CNCC[C@@]1(c2ccccn2)CCOC2(CCCC2)C1
3. O=C(NCCN1CCC2(CC1)C(=O)NCN2c1cccc(F)c1)c1ccc2ccccc2c1
4. CC[C@@H]1C[C@H]2CC[C@H](O2)[C@H](C)C(=O)O[C@@H](C)C[C@@H]2CC[C@@H](O2)[C@@H](C)C(=O)O[C@H](CC)C[C@H]2CC[C@H](O2)[C@H](C)C(=O)O[C@@H](C)C[C@@H]2CC[C@@H](O2)[C@@H](C)C(=O)O1
5. C[C@]12CC[C@@H](O[C@@H]3O[C@H](CO)[C@@H](O)[C@H](O)[C@H]3O)C[C@@]1(O)CCC1C2CC[C@]2(C)[C@@H](C3=CC(=O)OC3)CC[C@]12O (some centres undefined)
6. O=C(N[C@H]1CN2CCC1CC2)c1cc2cccc(Cl)c2s1
7. CCCCCn1cc(C(=O)Cc2ccccc2OC)c2ccccc21

3160 nM (active)
inactive
inactive
631 nM (active)
199 nM (active)
inactive
inactive
